Origin of measurements: ChEMBL document CHEMBL4706571

As a worked illustration, we turn to IC50 data collected for UniProt P06276.
quantity-measured: IC50 (nM)

INSERT INTO assay_data (compound, quantity_measured, result) VALUES
  ('CCCCN[C@@H](Cc1c[nH]c2ccccc12)C(=O)NCCC1CCN(CC2CCN(C)CC2)CC1', 'IC50', 6600),
  ('CCCCN[C@@H](Cc1c[nH]c2ccccc12)C(=O)NCCC1CCCN(Cc2c(F)c(F)cc(F)c2F)CC1 (mixture of isomers)', 'IC50', 5.9),
  ('CCCCN[C@@H](Cc1c[nH]c2ccccc12)C(=O)NCCC1CCN(Cc2ccccc2)CC1', 'IC50', 2),
  ('CCCCN(CCCC)[C@@H](Cc1c[nH]c2ccccc12)C(=O)N1CCC(Cc2ccccc2)CC1', 'IC50', 76),
  ('CCCCN[C@@H](Cc1c[nH]c2ccccc12)C(=O)NCCC1CCCN(Cc2ccccc2)C1 (mixture of isomers)', 'IC50', 9);

====

# study-system: Cholinesterase (Homo sapiens)
# Sequence (P06276 whole entry): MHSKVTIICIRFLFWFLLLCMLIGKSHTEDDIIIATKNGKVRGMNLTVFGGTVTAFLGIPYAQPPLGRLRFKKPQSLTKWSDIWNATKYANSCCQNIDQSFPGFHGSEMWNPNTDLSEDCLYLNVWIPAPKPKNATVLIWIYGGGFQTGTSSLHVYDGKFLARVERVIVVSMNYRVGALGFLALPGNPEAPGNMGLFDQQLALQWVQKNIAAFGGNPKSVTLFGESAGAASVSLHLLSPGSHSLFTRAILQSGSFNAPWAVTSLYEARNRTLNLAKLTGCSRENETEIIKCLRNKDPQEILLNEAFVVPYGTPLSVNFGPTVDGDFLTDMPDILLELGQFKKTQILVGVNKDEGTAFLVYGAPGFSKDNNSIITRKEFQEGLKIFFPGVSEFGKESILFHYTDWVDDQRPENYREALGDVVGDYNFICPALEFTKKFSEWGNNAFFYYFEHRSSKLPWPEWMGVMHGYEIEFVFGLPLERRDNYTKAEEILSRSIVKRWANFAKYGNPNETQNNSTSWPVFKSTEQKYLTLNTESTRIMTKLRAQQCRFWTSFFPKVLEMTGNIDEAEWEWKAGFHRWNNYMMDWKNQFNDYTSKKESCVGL
# assay-comment: Inhibition of human BChE using butyrylthiocholineiodide as substrate measured for 5 mins by Ellman's method
Collected IC50 values appear next to each entry.
quantity-measured: IC50 (nM)

INSERT INTO measurements (molecule, quantity_unit, result) VALUES
  ('CCCCN[C@@H](CC(C)C)C(=O)NCCC1CCCCCC1', 'nM', 36300),
  ('CCCCN[C@@H](Cc1c[nH]c2ccccc12)C(=O)N1CCCC1c1ccccc1 (some centres undefined)', 'nM', 990),
  ('CCCCN[C@@H](Cc1c[nH]c2ccccc12)C(=O)NCCC1CCN(c2ccccc2)CC1', 'nM', 5.6),
  ('CCCCN[C@@H](Cc1c[nH]c2ccccc12)C(=O)NCCC1CCCC(c2ccccc2)C1 (mixture of isomers)', 'nM', 6.6),
  ('CCCCN[C@@H](Cc1c[nH]c2ccccc12)C(=O)NCCC1CCCN(Cc2ccccc2)CC1 (mixture of isomers)', 'nM', 2.8),
  ('CCCCN[C@@H](Cc1c[nH]c2ccccc12)C(=O)NCCC1CCCN(Cc2ccc(OC)cc2)CC1 (mixture of isomers)', 'nM', 100),
  ('CCCCN[C@@H](Cc1c[nH]c2ccccc12)C(=O)NCCC1CCN(CCc2ccccc2)CC1', 'nM', 3.8),
  ('CCCCN[C@@H](Cc1c[nH]c2ccccc12)C(=O)NCCC1CCCCCC1', 'nM', 22),
  ('CCCCN[C@@H](Cc1ccccc1)C(=O)NCCC1CCCCCC1', 'nM', 609);

====

# study-system: Acetylcholinesterase (Homo sapiens, UniProt P22303)
# Sequence (P22303 whole entry): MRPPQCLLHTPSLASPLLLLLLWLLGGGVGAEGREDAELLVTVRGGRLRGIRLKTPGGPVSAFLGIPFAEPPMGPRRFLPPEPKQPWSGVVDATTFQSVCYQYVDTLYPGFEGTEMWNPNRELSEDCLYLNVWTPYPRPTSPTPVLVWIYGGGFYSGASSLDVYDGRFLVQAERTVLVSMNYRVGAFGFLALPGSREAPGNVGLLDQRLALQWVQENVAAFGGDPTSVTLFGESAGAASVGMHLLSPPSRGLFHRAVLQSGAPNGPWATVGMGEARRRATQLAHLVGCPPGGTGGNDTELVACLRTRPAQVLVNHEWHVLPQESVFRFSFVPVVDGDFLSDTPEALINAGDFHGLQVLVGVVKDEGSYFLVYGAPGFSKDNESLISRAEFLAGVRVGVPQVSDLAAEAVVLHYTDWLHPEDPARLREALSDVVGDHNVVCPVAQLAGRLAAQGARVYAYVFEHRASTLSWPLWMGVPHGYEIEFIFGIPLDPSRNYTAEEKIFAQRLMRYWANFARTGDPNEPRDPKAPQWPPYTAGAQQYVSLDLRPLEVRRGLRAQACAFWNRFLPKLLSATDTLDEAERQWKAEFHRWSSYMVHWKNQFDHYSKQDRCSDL
quantity-measured: IC50 (µM)

INSERT INTO results (compound, quantity_measured, quantity_unit, result) VALUES
  ('CCCCN[C@@H](Cc1c[nH]c2ccccc12)C(=O)NCCC1CCCN(Cc2ccccc2)CC1 (mixture of isomers)', 'IC50', 'µM', 16),
  ('CCCCN[C@@H](Cc1c[nH]c2ccccc12)C(=O)NCCC1CCN(Cc2ccccc2)CC1', 'IC50', 'µM', 25.4),
  ('CCCCN[C@@H](Cc1c[nH]c2ccccc12)C(=O)NCCC1CCN(CC2CCN(C)CC2)CC1', 'IC50', 'µM', 29.7);
